Target: zinc ion binding site mutant (H17A and H19A) GPR39 (Mus musculus, UniProt Q5U431, H17A/H19A)
Construct: 3HA (N); P2A-mCherry (C); expressed in transfected cells; host or cells: HEK293T, transient (Lipofectamine 3000)
Sequence (Q5U431 whole entry H17A/H19A): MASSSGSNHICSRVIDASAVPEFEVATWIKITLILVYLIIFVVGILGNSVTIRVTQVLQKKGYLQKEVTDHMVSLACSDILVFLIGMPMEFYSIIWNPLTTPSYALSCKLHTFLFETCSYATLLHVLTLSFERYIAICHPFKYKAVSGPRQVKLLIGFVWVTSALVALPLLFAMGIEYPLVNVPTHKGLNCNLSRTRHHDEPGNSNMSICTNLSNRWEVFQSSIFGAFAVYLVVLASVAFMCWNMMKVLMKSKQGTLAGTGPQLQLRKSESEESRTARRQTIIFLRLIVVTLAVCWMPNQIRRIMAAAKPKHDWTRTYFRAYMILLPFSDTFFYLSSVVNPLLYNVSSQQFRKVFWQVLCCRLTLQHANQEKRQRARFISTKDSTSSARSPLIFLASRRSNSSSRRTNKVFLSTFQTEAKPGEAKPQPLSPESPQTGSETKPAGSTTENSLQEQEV
Assay: Calcium imaging on 293T cells transiently transfected with zinc ion binding site mutant GPR39
Format: cell-based
Details: transiently transfected HEK293T cells, + 4 μM zinc ions
Quantity Measured: pEC50
Keep in mind that pEC50 stands for -log10 of concentration in molar terms.

q: pEC50 for C[C@H](CCC(=O)O)[C@H]1CC[C@H]2[C@@H]3CC[C@@H]4C[C@H](OS(=O)(=O)O)CC[C@]4(C)[C@H]3CC[C@]12C ?
a: 5.06

Data origin, for the record: patent US12569502B2
